All values here come from ChEMBL document CHEMBL3352452.

assay: Intrinsic clearance in rat liver microsomes at 1 uM after 30 mins; format: ADME; settings: read-out: CLH
Please note: Yes applies when microsomal CLint at 1 µM is 30 µL/min/mg or greater, and No applies otherwise.

                                    molecule  class_label
 0  Cc1nc(N)nc(-c2cc(C(C)(C)O)cnc2Nc2cncc(S(C)(=O)=O)c2)n1           No
 1  COc1ncc(Nc2ncc(C3(O)CC3)cc2-c2nc(C)nc(N)n2)cc1F          Yes
 2  COc1ccc(Nc2ncc(C(C)(C)O)cc2-c2nc(C)nc(N)n2)cn1           No
 3  Cc1nc(N)nc(-c2cc(C(C)(C)O)cnc2Nc2cncc(F)c2)n1           No
 4  COc1ncc(Nc2ncc(C(C)(C)O)cc2-c2nc(C)nc(N)n2)cc1C           No
 5  COc1ncc(Nc2ncc([C@@H](C)N3CCN(S(C)(=O)=O)CC3)cc2-c2nc(C)nc(N)n2)cc1F           No
 6     COc1ncc(Nc2ncccc2-c2nc(C)nc(N)n2)cc1F          Yes
 7  COc1cncc(Nc2ncc(C(C)(C)O)cc2-c2nc(C)nc(N)n2)c1           No
 8  COc1ncc(Nc2ncc([C@@H](C)CO)cc2-c2nc(C)nc(N)n2)cc1F          Yes
 9  COc1ncc(Nc2ncc(CO)cc2-c2nc(C)nc(N)n2)cc1F          Yes
10  COc1ncc(Nc2ncc([C@H](C)CO)cc2-c2nc(C)nc(N)n2)cc1F          Yes
11  COc1ncc(Nc2ncc([C@H](C)O)cc2-c2nc(C)nc(N)n2)cc1F           No
12  COc1ncc(Nc2ncc(C(C)(C)O)cc2-c2nc(C)nc(N)n2)cc1F           No
13  COc1ncc(Nc2ncc([C@@H](C)O)cc2-c2nc(C)nc(N)n2)cc1F          Yes
14  COc1ncc(Nc2ncc(C(C)(C)CO)cc2-c2nc(C)nc(N)n2)cc1F          Yes
15  COc1cc(Nc2ncc(C(C)(C)O)cc2-c2nc(C)nc(N)n2)cnc1OC           No
16  COc1ncc(Nc2ncc(C(O)C(F)(F)F)cc2-c2nc(C)nc(N)n2)cc1F (racemic)          Yes

---

These records show pKi for PI3-kinase p110-alpha/p85-alpha (Homo sapiens).
pKi: −log10 of the molar value.
RECORDED METRIC: pKi

>>> print(df.to_string())
                                   molecule   val
0  COc1cncc(Nc2ncc(C(C)(C)O)cc2-c2nc(C)nc(N)n2)c1  7.05
1  Cc1nc(N)nc(-c2cc(C(C)(C)O)cnc2Nc2cncc(F)c2)n1  7.06
2  COc1ncc(Nc2ncc(C(C)(C)O)cc2-c2nc(C)nc(N)n2)cc1F  7.64
3     COc1ncc(Nc2ncccc2-c2nc(C)nc(N)n2)cc1F  7.32
4  COc1ncc(Nc2ncc(C3(O)CC3)cc2-c2nc(C)nc(N)n2)cc1F  7.80
5  COc1ncc(Nc2ncc(C(C)(C)CO)cc2-c2nc(C)nc(N)n2)cc1F  7.40
6  COc1ncc(Nc2ncc(C(O)C(F)(F)F)cc2-c2nc(C)nc(N)n2)cc1F (racemic)  7.52
7  COc1ncc(Nc2ncc([C@@H](C)CO)cc2-c2nc(C)nc(N)n2)cc1F  7.40
8  COc1ncc(Nc2ncc([C@H](C)CO)cc2-c2nc(C)nc(N)n2)cc1F  7.59

---

molecules and their reported Vd
assay: Volume of distribution at steady state in Sprague-Dawley rat at 1 mg/kg, iv and 2 mg/kg, po; type: ADME, organism-based; conditions: in vivo, read-out: Vdss
RECORDED METRIC: Vd (L/kg)

>>> df
                                   compound  val
0  COc1ncc(Nc2ncc(C(C)(C)O)cc2-c2nc(C)nc(N)n2)cc1F  1.7
1  COc1cc(Nc2ncc(C(C)(C)O)cc2-c2nc(C)nc(N)n2)cnc1OC  4.2

---

experiment: Fraction unbound in Sprague-Dawley rat plasma at 1 mg/kg, iv and 2 mg/kg, po; format: ADME, organism-based
RECORDED METRIC: fraction unbound

>>> df
                                   compound   val
0  COc1ncc(Nc2ncc(C(C)(C)O)cc2-c2nc(C)nc(N)n2)cc1F  0.06
1  COc1ncc(Nc2ncc([C@@H](C)N3CCN(S(C)(=O)=O)CC3)cc2-c2nc(C)nc(N)n2)cc1F  0.08

---

assay: Intrinsic clearance in human liver microsomes at 1 uM after 30 mins; type: ADME; settings: read-out: CLH
molecules and their reported microsomal CLint at 1 µM
RECORDED METRIC: microsomal CLint at 1 µM (µL/min/mg)

>>> print(df.to_string())
                                    molecule           recorded_metric  rel  val
 0  COc1ccc(Nc2ncc(C(C)(C)O)cc2-c2nc(C)nc(N)n2)cn1  microsomal CLint at 1 µM    <   14
 1  COc1ncc(Nc2ncc([C@H](C)O)cc2-c2nc(C)nc(N)n2)cc1F  microsomal CLint at 1 µM    <   14
 2  COc1ncc(Nc2ncc([C@@H](C)O)cc2-c2nc(C)nc(N)n2)cc1F  microsomal CLint at 1 µM    =   22
 3  COc1ncc(Nc2ncc([C@@H](C)CO)cc2-c2nc(C)nc(N)n2)cc1F  microsomal CLint at 1 µM    <   14
 4  COc1cncc(Nc2ncc(C(C)(C)O)cc2-c2nc(C)nc(N)n2)c1  microsomal CLint at 1 µM    =   17
 5  COc1ncc(Nc2ncc(C(O)C(F)(F)F)cc2-c2nc(C)nc(N)n2)cc1F (racemic)  microsomal CLint at 1 µM    =   18
 6  COc1cc(Nc2ncc(C(C)(C)O)cc2-c2nc(C)nc(N)n2)cnc1OC  microsomal CLint at 1 µM    <   14
 7  Cc1nc(N)nc(-c2cc(C(C)(C)O)cnc2Nc2cncc(S(C)(=O)=O)c2)n1  microsomal CLint at 1 µM    <   14
 8  COc1ncc(Nc2ncc(C(C)(C)CO)cc2-c2nc(C)nc(N)n2)cc1F  microsomal CLint at 1 µM    =   34
 9  COc1ncc(Nc2ncc([C@H](C)CO)cc2-c2nc(C)nc(N)n2)cc1F  microsomal CLint at 1 µM    =   14
10     COc1ncc(Nc2ncccc2-c2nc(C)nc(N)n2)cc1F  microsomal CLint at 1 µM    =   99
11  COc1ncc(Nc2ncc(C3(O)CC3)cc2-c2nc(C)nc(N)n2)cc1F  microsomal CLint at 1 µM    =   39
12  Cc1nc(N)nc(-c2cc(C(C)(C)O)cnc2Nc2cncc(F)c2)n1  microsomal CLint at 1 µM    <   14
13  COc1ncc(Nc2ncc(C(C)(C)O)cc2-c2nc(C)nc(N)n2)cc1F  microsomal CLint at 1 µM    <   14
14  COc1ncc(Nc2ncc(C(C)(C)O)cc2-c2nc(C)nc(N)n2)cc1C  microsomal CLint at 1 µM    <   14

---

molecular target: Serine/threonine-protein kinase mTOR (Homo sapiens, UniProt P42345); assay: Inhibition of recombinant N-terminally GST-tagged mTOR (1360 to 2549 aa) (unknown origin) assessed as inhibition of 27BP1 phosphorylation after 90 mins by TR-FRET assay
compounds and their reported IC50
RECORDED METRIC: IC50

In [3]: df
Out[3]:
                                   compound  recorded_metric      val
0  COc1ncc(Nc2ncc(C(C)(C)O)cc2-c2nc(C)nc(N)n2)cc1C(C)C             IC50  > 25 µM
1     COc1ncc(Nc2ncccc2-c2nc(C)nc(N)n2)cc1F             IC50  > 22 µM
2  COc1ncc(Nc2ncc(CO)cc2-c2nc(C)nc(N)n2)cc1F             IC50  > 15 µM
3  COc1ncc(Nc2ncc([C@@H](C)CO)cc2-c2nc(C)nc(N)n2)cc1F             IC50  > 15 µM
4  Cc1nc(N)nc(-c2cc(C(C)(C)O)cnc2Nc2cncc(S(C)(=O)=O)c2)n1             IC50  > 16 µM
5  COc1ncc(Nc2ncc(C(C)(C)O)cc2-c2nc(C)nc(N)n2)cc1C(F)(F)F             IC50  > 25 µM
6  COc1ncc(Nc2ncc([C@@H](C)O)cc2-c2nc(C)nc(N)n2)cc1F             IC50  > 25 µM
7  COc1ncc(Nc2ncc([C@H](C)O)cc2-c2nc(C)nc(N)n2)cc1F             IC50  > 25 µM
8  COc1ncc(Nc2ncc(C(C)(C)CO)cc2-c2nc(C)nc(N)n2)cc1F             IC50  > 17 µM
